- experimentalTarget: tetanus neurotoxin (TeNT), authentic tetanus holotoxin (Clostridium tetani, UniProt P04958 2-1315)
- Sequence (P04958 2-457 limits assumed, chain 1 of 2): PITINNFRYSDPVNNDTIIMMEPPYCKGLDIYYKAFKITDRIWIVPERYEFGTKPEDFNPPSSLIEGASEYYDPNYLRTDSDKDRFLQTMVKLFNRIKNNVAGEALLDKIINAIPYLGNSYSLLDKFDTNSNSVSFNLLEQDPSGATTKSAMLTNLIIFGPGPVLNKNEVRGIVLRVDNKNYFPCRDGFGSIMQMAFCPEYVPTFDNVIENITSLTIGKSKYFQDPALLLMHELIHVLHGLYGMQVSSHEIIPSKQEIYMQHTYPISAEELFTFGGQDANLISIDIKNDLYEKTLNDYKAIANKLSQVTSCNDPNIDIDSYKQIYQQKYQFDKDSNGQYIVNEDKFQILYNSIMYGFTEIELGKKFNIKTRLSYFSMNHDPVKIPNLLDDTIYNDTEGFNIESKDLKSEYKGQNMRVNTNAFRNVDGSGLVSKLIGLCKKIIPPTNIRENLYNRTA
- Sequence (P04958 458-1315 limits assumed, chain 2 of 2): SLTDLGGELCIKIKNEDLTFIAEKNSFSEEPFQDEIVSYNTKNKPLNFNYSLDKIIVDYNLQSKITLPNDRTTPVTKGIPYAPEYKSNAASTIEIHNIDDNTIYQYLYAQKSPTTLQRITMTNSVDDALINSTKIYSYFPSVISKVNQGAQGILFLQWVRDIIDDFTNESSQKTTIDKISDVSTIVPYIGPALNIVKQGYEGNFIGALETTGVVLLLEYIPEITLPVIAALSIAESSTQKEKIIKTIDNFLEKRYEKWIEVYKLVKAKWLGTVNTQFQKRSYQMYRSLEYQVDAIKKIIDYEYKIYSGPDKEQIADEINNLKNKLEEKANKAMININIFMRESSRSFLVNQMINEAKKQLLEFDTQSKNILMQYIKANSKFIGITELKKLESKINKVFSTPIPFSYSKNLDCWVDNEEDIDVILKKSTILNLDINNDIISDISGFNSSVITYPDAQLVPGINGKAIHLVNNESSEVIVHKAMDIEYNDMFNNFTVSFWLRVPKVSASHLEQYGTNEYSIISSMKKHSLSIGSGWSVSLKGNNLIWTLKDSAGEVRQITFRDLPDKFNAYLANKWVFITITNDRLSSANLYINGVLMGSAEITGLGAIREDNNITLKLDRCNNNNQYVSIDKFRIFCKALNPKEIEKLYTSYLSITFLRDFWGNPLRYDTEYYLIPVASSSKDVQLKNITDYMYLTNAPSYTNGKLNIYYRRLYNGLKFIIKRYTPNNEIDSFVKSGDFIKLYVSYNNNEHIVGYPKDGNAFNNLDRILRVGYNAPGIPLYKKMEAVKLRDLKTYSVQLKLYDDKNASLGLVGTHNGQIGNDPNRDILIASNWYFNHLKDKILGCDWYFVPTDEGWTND
- assayComment: GT1b-TeNT inhibition ELISA, unlabelled binder
Reported minimal absorbance at 450 nm values for the following binders.
// return a plain number; no unit text

(Q) Requested read-out: minimal absorbance at 450 nm. Entry: SVT15L-3FW4M (VHH) VHH: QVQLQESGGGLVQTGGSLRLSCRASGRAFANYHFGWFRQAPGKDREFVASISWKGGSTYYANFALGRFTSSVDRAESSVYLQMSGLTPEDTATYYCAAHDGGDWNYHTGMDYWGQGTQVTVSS
(A) 0.127

(Q) Requested read-out: minimal absorbance at 450 nm. Entry: SVT15L (VHH) VHH: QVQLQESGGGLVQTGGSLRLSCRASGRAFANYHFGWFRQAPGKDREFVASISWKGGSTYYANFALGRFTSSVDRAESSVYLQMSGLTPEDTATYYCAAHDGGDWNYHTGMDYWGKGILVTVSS
(A) 0.14

(Q) Requested read-out: minimal absorbance at 450 nm. Entry: SVT02L (VHH) VHH: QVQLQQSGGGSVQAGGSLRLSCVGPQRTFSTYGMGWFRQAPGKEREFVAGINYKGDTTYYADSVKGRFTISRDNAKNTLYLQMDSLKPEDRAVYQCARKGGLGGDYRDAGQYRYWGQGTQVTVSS
(A) 0.576

Read the next record carefully.
(Q) Requested read-out: minimal absorbance at 450 nm. Entry: SVT20L (VHH) VHH: QVQLQQSGGGLVQAGGSLRLSCAASGRTMSSYAMGWFRQAPGKQREFVAAISRSGGNTYYTDSVKGRFTISRDNAKNTLYLQMNSLKPEETAVYYCAADPNLMYESKWKYRALEAWGQGTLVTVSS
(A) 0.117
